# assay_system: Toll-like receptor 4 (Homo sapiens, UniProt O00206)
# Sequence (O00206 whole entry): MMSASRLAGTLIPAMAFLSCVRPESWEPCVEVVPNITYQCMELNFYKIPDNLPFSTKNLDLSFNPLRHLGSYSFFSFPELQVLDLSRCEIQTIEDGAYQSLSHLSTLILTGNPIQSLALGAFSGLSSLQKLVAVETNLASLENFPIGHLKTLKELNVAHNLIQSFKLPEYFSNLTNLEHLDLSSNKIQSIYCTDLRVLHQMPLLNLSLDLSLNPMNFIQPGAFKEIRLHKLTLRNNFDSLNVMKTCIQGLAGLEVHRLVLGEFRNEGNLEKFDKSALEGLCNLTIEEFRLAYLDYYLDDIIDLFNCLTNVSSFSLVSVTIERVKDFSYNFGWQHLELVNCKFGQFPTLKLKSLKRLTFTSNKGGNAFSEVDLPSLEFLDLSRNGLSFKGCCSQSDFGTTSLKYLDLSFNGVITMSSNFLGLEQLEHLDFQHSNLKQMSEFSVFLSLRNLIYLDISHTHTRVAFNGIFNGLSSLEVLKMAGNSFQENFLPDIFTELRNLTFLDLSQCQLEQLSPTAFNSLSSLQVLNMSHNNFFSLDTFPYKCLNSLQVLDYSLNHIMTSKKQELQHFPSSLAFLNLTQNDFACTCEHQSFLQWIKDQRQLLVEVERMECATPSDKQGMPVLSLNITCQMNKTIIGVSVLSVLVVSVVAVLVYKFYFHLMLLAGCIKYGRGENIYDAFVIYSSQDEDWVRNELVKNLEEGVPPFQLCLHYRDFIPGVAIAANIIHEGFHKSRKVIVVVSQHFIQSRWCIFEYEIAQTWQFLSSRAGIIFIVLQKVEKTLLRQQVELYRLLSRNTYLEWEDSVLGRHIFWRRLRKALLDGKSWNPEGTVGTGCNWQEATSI
# assay_protocol: Antagonist activity at human TLR4 in HEK-Blue hTLR4 cells assessed as inhibition of LPS-induced receptor activation preincubated with LPS followed by compound addition and measured 24 hrs by Quanti-Blue based SEAP reporter gene assay
pIC50: −log10 of the molar value.
Entries annotated with measured pIC50
test_readout: pIC50

INSERT INTO measurements (compound_structure, test_readout, value_observed) VALUES
  ('O=[N+]([O-])/C=C/c1cccc(OCc2ccc(F)cc2)c1', 'pIC50', 5.38),
  ('O=[N+]([O-])/C=C/c1ccc(Oc2ccccc2)cc1', 'pIC50', 5.19),
  ('C/C(=C\[N+](=O)[O-])c1cccc(Oc2ccccc2)c1', 'pIC50', 5.20),
  ('O=[N+]([O-])/C=C/c1cccc(Nc2cccnc2)c1', 'pIC50', 5.51),
  ('O=[N+]([O-])/C=C/c1cccc(OCc2ccccc2)c1', 'pIC50', 5.46),
  ('O=[N+]([O-])/C=C/c1cccc(OCc2ccc3ccccc3c2)c1', 'pIC50', 5.36),
  ('COc1ccc(COc2cccc(/C=C/[N+](=O)[O-])c2)cc1', 'pIC50', 5.25),
  ('O=[N+]([O-])/C=C/c1cccc(OCC2CCCCC2)c1', 'pIC50', 5.23),
  ('O=[N+]([O-])/C=C/c1cccc(Nc2ccccn2)c1', 'pIC50', 6.34),
  ('O=[N+]([O-])/C=C/c1cccc(Nc2ncccn2)c1', 'pIC50', 5.55),
  ('CCCOC(=O)c1ccc(COc2cccc(/C=C/[N+](=O)[O-])c2)nc1', 'pIC50', 5.23);
